All values here come from patent US9393232B2.

# study target: Recombinant human BRD4(1-477) (Homo sapiens (Human), UniProt O60885)
# experimental details: BRD4 TR-FRET biochemical IC50 assay
# Assay type: binding
# conditions: TR-FRET, tetra-acetylated histone peptide; read-out: BRD4 IC50
pIC50: −log10 of the molar value.

# compound, pIC50
records = [
    ("Cc1noc(C)c1-c1ccc2c(c1)C(CCCN(C)C)(c1ccccc1)C(=O)N2 (stereo not shown)", 6.85),
    ("COC(=O)[C@@H]1C[C@@H](O)CN1C1(c2ccccc2)C(=O)Nc2ccc(-c3c(C)noc3C)cc21 (single isomer, unassigned) [Compound 2.50a]", 6.34),
    ("Cc1noc(C)c1-c1ccc2c(c1)C(c1ccsc1)(N1CCC[C@@H](N)C1)C(=O)N2 (single isomer, unassigned) [Compound 4.6a]", 7.52),
    ("Cc1noc(C)c1-c1ccc2c(c1)C(N)(c1ccccc1)C(=O)N2 (single isomer, unassigned) [Compound 2.2b]", 5.44),
]

* * *

Catalogue of IC50 values
# study target: Recombinant human BRD4(1-477) (Homo sapiens (Human), UniProt O60885)
# experimental details: BRD4 TR-FRET biochemical IC50 assay
# Type: binding
# conditions: TR-FRET, tetra-acetylated histone peptide; read-out: BRD4 IC50

# molecule, IC50 / nM
records = [
    ("Cc1noc(C)c1-c1ccc2c(c1)C(c1ccccc1)(N1CCN(CCCO)CC1)C(=O)N2 (centres unmarked)", 84),
    ("Cc1noc(C)c1-c1ccc2c(c1)C(c1ccccc1)(N1CC(O)C1)C(=O)N2 (centres unmarked)", 78),
    ("Cc1noc(C)c1-c1ccc2c(c1)C(NC[C@@H](C)O)(c1ccccc1)C(=O)N2 (single isomer, unassigned) [Compound 2.13b]", 81),
    ("Cc1noc(C)c1-c1ccc2c(c1)C(N[C@H](C)CO)(C1CCCCC1)C(=O)N2 (some centres unmarked)", 75),
    ("Cc1noc(C)c1-c1ccc2c(c1)C(CCCN1CCOCC1)(c1ccccc1)C(=O)N2 (centres unmarked)", 100),
]
